Recorded pIC50 for the following molecules
test system: Endogenous Huntingtin Protein; test: Endogenous Huntingtin Protein Assay (ELISA-based MSD electrochemiluminescence); type: cell-based; conditions: Table 1
pIC50: −log10 of the molar value.
MEASUREMENT_KIND: pIC50

>>> observed_measurement("CCN1CCC(c2nc3c(F)cc(-c4ccc5nc(C)cn5n4)cc3s2)CC1")
"≥ 7.00"
>>> observed_measurement("CN1C(C)(C)CC(Nc2nc3cnc(-c4cc(C#N)c5nn(C)cc5c4)cc3s2)CC1(C)C")
"6.30 to 7.00"
>>> observed_measurement("Cn1cc2cc(-c3cc(F)c4nc(C5=CCNCC5)sc4c3)ccc2n1")
"6.30 to 7.00"
>>> observed_measurement("CN(c1nc2ncc(-c3cc(C#N)c4nn(C)cc4c3)nc2s1)C1CC(C)(C)NC(C)(C)C1")
"≥ 7.00"
>>> observed_measurement("CN(c1nc2cnc(-c3ccc4nn(C)cc4c3)cc2s1)C1CC2CCCC(C1)N2 (centres unmarked)")
"≥ 7.00"
>>> observed_measurement("CN1CCC(Nc2nc3nnc(-c4ccc(-c5cn[nH]c5)cc4O)cc3s2)C1 (centres unmarked)")
"≥ 7.00"
>>> observed_measurement("CC1CC(c2nc3ccc(-c4ccc5nn(C)cc5c4)cc3s2)=CCN1 (centres unmarked)")
"6.30 to 7.00"
>>> observed_measurement("Cc1cn2cc(-c3cc4sc(NC5CC(C)(C)N(C)C(C)(C)C5)nc4cn3)cc(C#N)c2n1")
"6.30 to 7.00"
>>> observed_measurement("CN(c1nc2ccc(-c3ccc4nn(C)cc4c3)cc2s1)C1CC(C)(C)NC(C)(C)C1")
"≥ 7.00"
>>> observed_measurement("Cc1cn2cc(-c3cc4sc(N(C)[C@H]5C[C@]6(C)CC[C@@](C)(N6)[C@H]5F)nc4cn3)cc(F)c2n1")
"≥ 7.00"
>>> observed_measurement("Cc1cn2cc(-c3cc4sc(N(C)C5CC(C)(C)NC(C)(C)C5)nc4cn3)cc(C)c2n1")
"≥ 7.00"
>>> observed_measurement("COc1cc(-c2cc3sc(N(C)C4CC5CCCC(C4)N5)nc3cn2)cc2cn(C)nc12 (centres unmarked)")
"≥ 7.00"
>>> observed_measurement("CN(c1nc2ccc(-c3cc(C#N)c4nn(C)cc4c3)nc2s1)C1CC2(C)CCC(C)(C1)N2 (centres unmarked)")
"≥ 7.00"
>>> observed_measurement("CN(c1nc2cnc(-c3cc(F)c4nn(C)cc4c3)cc2s1)C1CC2CCCC(C1)N2C (centres unmarked)")
"6.00 to 6.30"
>>> observed_measurement("CN1CCC2(CC1)CN(c1nc3nnc(-c4ccc(-c5c[nH]nc5F)cc4O)cc3s1)C2")
"5.52 to 6.00"
>>> observed_measurement("CN(c1nc2nnc(-c3ccc(-c4cn[nH]c4)cc3O)cc2s1)[C@H]1CNC[C@@H]1F")
"6.30 to 7.00"
>>> observed_measurement("CN(c1nc2ccc(-c3ccc4nn(C)cc4c3)nc2s1)C1CC(C)(C)NC(C)(C)C1")
"6.30 to 7.00"
>>> observed_measurement("Cn1cc2cc(-c3ccc4nc(C5CCNCC5)sc4c3)ccc2n1")
"6.30 to 7.00"
>>> observed_measurement("Cc1cn2cc(-c3cc4sc(N(C)C5CC(C)(C)NC(C)(C)C5)nc4nn3)cc(F)c2n1")
"≥ 7.00"
>>> observed_measurement("Cc1cn2cc(-c3ncc4nc(N(C)C5CC6CCC(C5)N6)sc4n3)cc(C#N)c2n1 (centres unmarked)")
"≥ 7.00"
>>> observed_measurement("Cc1cn2cc(-c3ncc4nc(N(C)C5CC(C)(C)NC(C)(C)C5)sc4n3)cc(F)c2n1")
"≥ 7.00"
>>> observed_measurement("Cn1cc2cc(-c3cc4sc(OC5CC(C)(C)NC(C)(C)C5)nc4cn3)cc(C#N)c2n1")
"≥ 7.00"
>>> observed_measurement("CN1CCC(c2nc3ccc(-c4ccc5nn(C)cc5c4)cc3s2)CC1")
"5.52 to 6.00"
>>> observed_measurement("CN(c1nc2nnc(-c3ccc(-c4cn[nH]c4)cc3O)cc2s1)C1CC(C)(C)NC(C)(C)C1")
"≥ 7.00"
>>> observed_measurement("Cc1cn2cc(-c3cnc4nc(OC5CC(C)(C)NC(C)(C)C5)sc4n3)cc(C#N)c2n1")
"6.30 to 7.00"
>>> observed_measurement("Cc1cc(-c2ccc3nc(N(C)C4CCNC(C)(C)C4)sc3c2)cc2cn(C)nc12 (centres unmarked)")
"6.30 to 7.00"
>>> observed_measurement("Cc1cn2nc(-c3ccc4nc(C5CCNCC5)sc4c3)cc(C)c2n1")
"≥ 7.00"
>>> observed_measurement("CN(c1nc2ccc(-c3ccc4nn(C)cc4c3)cc2s1)C1CCNC(C)(C)C1 (centres unmarked)")
"6.30 to 7.00"
>>> observed_measurement("Cc1cn2cc(-c3ccc4nc(N(C)C5CC(C)(C)NC(C)(C)C5)sc4n3)cc(F)c2n1")
"≥ 7.00"
>>> observed_measurement("Cc1cn2nc(-c3ncc4nc(N(C)C5CC(C)(C)NC(C)(C)C5)sc4n3)cc(C)c2n1")
"5.52 to 6.00"
>>> observed_measurement("CN(c1nc2cnc(-c3cc(C#N)c4nn(C)cc4c3)cc2s1)C1CC2CCC(C1)N2 (centres unmarked)")
"≥ 7.00"
>>> observed_measurement("Oc1cc(-c2cn[nH]c2)ccc1-c1cc2sc(N3CC[C@H]4CNCC[C@H]43)nc2nn1")
"≥ 7.00"
